Each recorded value in this set is attributed to patent US20080306285A1.

- EXPERIMENT DESCRIPTION: Pharmacokinetics of THC aerosol by inhalation in Beagle dogs
- Format: in vivo
- SETUP CONDITIONS: both sexes, Beagle, dog, venous plasma, inhaled or intranasal; inhalation
RECORDED ENDPOINT: bioavailability (%)
Give just the numeric value; % need not be written.

Record request: bioavailability value, item CCCCCc1cc(O)c2c(c1)OC(C)(C)[C@@H]1CCC(C)=C[C@@H]21 [THC, Δ^9-tetrahydrocannabinol]
67

* * *

- EXPERIMENT DESCRIPTION: Pharmacokinetics of THC aerosol by inhalation in Beagle dogs
- Type: in vivo
- SETUP CONDITIONS: Beagle, dog, plasma (venous), inhaled or intranasal, 0.93 mg, inhalation 0.93 mg THC + 0.11 THCA, venous plasma THC, subject 101
RECORDED ENDPOINT: Tmax (min)
Give just the numeric value; min need not be written.

Record request: Tmax value, item CCCCCc1cc(O)c2c(c1)OC(C)(C)[C@@H]1CCC(C)=C[C@@H]21 [THC, Δ^9-tetrahydrocannabinol]
3
